Tested target: 6-phosphogluconate dehydrogenase, decarboxylating (Homo sapiens) (UniProt P52209)
Sequence (P52209 whole entry, looked up): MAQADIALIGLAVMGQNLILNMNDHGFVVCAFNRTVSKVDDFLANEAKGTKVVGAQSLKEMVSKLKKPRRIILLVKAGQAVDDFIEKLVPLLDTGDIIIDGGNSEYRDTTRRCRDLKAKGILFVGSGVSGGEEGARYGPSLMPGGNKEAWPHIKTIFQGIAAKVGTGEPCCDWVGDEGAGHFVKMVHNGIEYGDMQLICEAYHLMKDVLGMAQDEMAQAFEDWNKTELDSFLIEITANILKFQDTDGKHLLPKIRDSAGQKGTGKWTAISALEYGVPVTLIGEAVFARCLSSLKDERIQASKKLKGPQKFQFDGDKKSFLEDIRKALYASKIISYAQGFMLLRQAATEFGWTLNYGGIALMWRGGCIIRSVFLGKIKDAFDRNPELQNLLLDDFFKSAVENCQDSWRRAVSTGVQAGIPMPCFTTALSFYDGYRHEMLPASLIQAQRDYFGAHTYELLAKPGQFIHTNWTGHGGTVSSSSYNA
Assay summary: 6PGD enzyme inhibitors, primary screen, biochemical, human, recombinant enzyme, NADPH absorbance (AID 1159550)
Measurement parameters: recombinant 6PGD, NADPH absorbance 341 nm; at 10 µM; stronger effect = higher value
Active and inactive are the calls of the source.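 The calls were made as follows: active = at least 20% inhibition of 6-phosphogluconate dehydrogenase activity; inactive = the rest.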
Outcome measure: inhibition

Some molecules with known inhibition results, for comparison:
• C=C[C@@H]1CN2CC[C@@H]1C[C@@H]2[C@@H](O)c1ccnc2ccc(OC)cc12 = 8.78% (inactive)
• CO/N=C(\C(=O)N[C@@H]1C(=O)N2C(C(=O)O)=C(CSc3nc(=O)c(O)nn3C)CSC12)c1csc(N)n1 (stereo partly drawn) = -13.8% (inactive)

What does the data say about its inhibition? Entry: CC12CCC3c4ccc(OC(=O)c5ccccc5)cc4CCC3C1CCC2=O (stereo not drawn)
-9.5% (inactive)
